read-out: Glutamate-cysteine ligase catalytic (GCLC), GCLC (gene 2729); experiment: LTEA_HepaRG_GCLC: Life Technologies and Expression Analysis (LTEA) Assay for Glutamate-cysteine ligase catalytic (GCLC) using HepaRG (AID 2283498); conditions: mRNA level, 48 h; actives raise or lower the signal
Calls of active or inactive are those of the source. How the source made its calls: active means hit-call score of the fitted dose curve at least 0.9, where 1 is the maximum; inactive means score below 0.9.
Measurement Kind: AC50

Answered cases to consult:
{"columns": ["Smiles Code", "Value"],
 "data": [
  ["NC(=O)NN=Cc1ccc([N+](=O)[O-])o1", "inactive"],
  ["COS(C)(=O)=O", "inactive"],
  ["COc1cc2c(c(OC)c1OC)-c1ccc(OC)c(=O)cc1[C@@H](NC(C)=O)CC2", "0.0881 µM (active)"],
  ["O=S(=O)(O)c1ccc(N=Nc2c(O)ccc3cc(S(=O)(=O)O)ccc23)cc1", "inactive"],
  ["CCCCCCOC(=O)CC(CC(=O)OCCCCCC)(OC(=O)CCC)C(=O)OCCCCCC", "inactive"]
]}

# evaluate next
Using the record for OC(CCl)CCl , state its measured AC50.
inactive

---

Test: APR_HepG2_CellLoss_72hr: Apredica 72-hour HepG2 Assay for Cell Loss (AID 2282915)
Conditions: high-content imaging
Description: APR_HepG2_72hr is a cell-based, multiplexed-readout assay that uses HepG2, a human liver cell line, with measurements taken at 72 hours after chemical dosing in a 384-well plate.APR_HepG2_CellLoss_72hr is one of 10 assay component(s) measured or calculated from the APR_HepG2_72hr assay. […] This assay endpoint, APR_HepG2_CellLoss_72hr, was analyzed with bidirectional fitting relative to DMSO as the negative control and baseline of activity. […]
Active and inactive are the calls of the source. How the source made its calls: active means hit-call score of the fitted dose curve at least 0.9, where 1 is the maximum; inactive means score below 0.9.
Measurement Kind: AC50

{"columns": ["Molecule", "AC50"],
 "data": [
  ["CCOc1ccc2[nH]cc(C(=O)NCc3ccccc3)c(=O)c2n1", "106 µM (active)"],
  ["Cc1ccc(S(=O)(=O)NC(=O)NN2CCCCCC2)cc1", "inactive"],
  ["CCCCCCCC1CCC(=O)O1 (configuration not stated)", "inactive"],
  ["OCC(CO)(CO)CO", "inactive"],
  ["C=CCc1cc(S(=O)(=O)c2ccc(O)c(CC=C)c2)ccc1O", "73.2 µM (active)"]
]}

Using the record for CCCCCCCCCCCCCCCCOS(=O)(=O)O , state its measured AC50.
inactive

Using the record for OCCOCCOCCO , state its measured AC50.
inactive

Using the record for CCCCCCCCCCCCCCO , state its measured AC50.
106 µM (active)

Using the record for CCCCCCCCCC , state its measured AC50.
inactive

Using the record for O=c1[nH]cnc2c1ncn2[C@H]1CC[C@@H](CO)O1 , state its measured AC50.
inactive

Using the record for COS(C)(=O)=O , state its measured AC50.
inactive

Using the record for c1ccc2cc3ccccc3cc2c1 , state its measured AC50.
139 µM (active)

---

assay: BSK_hDFCGF_Proliferation: Cell Proliferation Assessment in the BioMAP Diversity Plus: hDFCGF Assay (AID 2283059); conditions: primary human foreskin fibroblasts;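 further: curves fitted for both rise and fall of signal versus DMSO baseline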
Activity calls are given as the source filed them. How the source made its calls: active means hit-call score of the fitted dose curve at least 0.9, where 1 is the maximum; inactive means score below 0.9.
Hello, when you answer, please use one of the following outcomes: active, inactive

What was the test verdict on CCn1nc(C)c2c1C(=O)NCC(c1ccc(O)cc1)=N2 ?
active

---

experiment: ATG_AP_2_CIS: Attagene CIS-FACTORIAL HepG2 Assay for human Activator Protein 2 (AP-2) (AID 2282932); details: HepG2 AP-2 cis-reporter, Attagene transcription factor profiling; actives raise or lower the signal
Active and inactive are the calls of the source. The calls were made as follows: active = hit-call score of the fitted dose curve at least 0.9, where 1 is the maximum; inactive = score below 0.9.
Measurement Kind: outcome

Answered cases to consult:
{"columns": ["Compound", "outcome"],
 "data": [
  ["CCCOc1ccc(S(=O)(=O)N2CCN(CC)CC2)cc1-c1nc2c(CC)n(Cc3ccccn3)nc2c(=O)[nH]1", "inactive"],
  ["Cc1ncc([C@@H](CCCCCCc2ccc3c(n2)NCCC3)CC(=O)O)cn1", "inactive"],
  ["O=S(=O)(O)CCC(F)(F)C(F)(F)C(F)(F)C(F)(F)C(F)(F)C(F)(F)F", "inactive"],
  ["c1ccc2c(c1)-c1cccc3c1c-2cc1ccccc13", "inactive"],
  ["CC(C)c1nnc2ccc(-c3ocnc3-c3cc(F)ccc3F)cn12", "inactive"]
]}

Using the record for COCc1nnc(-c2ccc[n+]([O-])c2)n1-c1c(Cl)c(Cl)cc2[nH]c(=O)c(=O)[nH]c12 , state its measured outcome.
inactive

Using the record for OCCC(F)(F)C(F)(F)C(F)(F)C(F)(F)F , state its measured outcome.
inactive

Using the record for CCCC(CCC)C(=O)O , state its measured outcome.
inactive

Using the record for CCCCOC(=O)c1ccccc1 , state its measured outcome.
inactive

Using the record for CNC(C)=O , state its measured outcome.
inactive

Using the record for CC(C)CC(C)O (configuration not stated) , state its measured outcome.
inactive

Using the record for O=C(O)CO , state its measured outcome.
inactive

---

target: human Muscarinic, M4 Receptor, CHRM4 (gene 1132) (UniProt P08173); test: NVS_GPCR_hM4: NovaScreen (NVS) G Protein-Coupled Receptor Assay for human Muscarinic, M4 Receptor (AID 2283274)
Sequence (P08173 whole entry, looked up): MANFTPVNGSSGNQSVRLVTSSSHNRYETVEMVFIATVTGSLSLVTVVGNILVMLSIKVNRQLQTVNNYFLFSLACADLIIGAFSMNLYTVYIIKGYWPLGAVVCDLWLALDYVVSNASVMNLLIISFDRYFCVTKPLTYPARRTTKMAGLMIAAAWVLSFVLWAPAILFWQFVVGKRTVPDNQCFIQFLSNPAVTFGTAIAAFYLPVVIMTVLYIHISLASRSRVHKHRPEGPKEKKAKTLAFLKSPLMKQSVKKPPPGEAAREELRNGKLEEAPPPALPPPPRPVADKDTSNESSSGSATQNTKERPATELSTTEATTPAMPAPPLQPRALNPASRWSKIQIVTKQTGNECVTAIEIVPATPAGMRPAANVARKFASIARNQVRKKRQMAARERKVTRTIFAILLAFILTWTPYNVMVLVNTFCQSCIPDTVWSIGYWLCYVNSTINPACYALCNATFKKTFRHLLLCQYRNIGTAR
Results filed as inconclusive are left out. Active and inactive are the calls of the source. The calls were made as follows: active = hit-call score of the fitted dose curve at least 0.9, where 1 is the maximum; inconclusive = response in the unintended direction; inactive = score below 0.9.
Hello, when you answer, please use one of the following outcomes: class 1 for active, class 0 for inactive

Consider the worked cases shown below.
{"columns": ["Smiles Code", "Class"],
 "data": [
  ["c1ccc(C(O[C@@H]2CCCN(CCc3ccc4c(c3)OCO4)C2)c2ccccc2)cc1", "class 1"],
  ["Cc1nccn1-c1ccc(Sc2cccc(C3(C(N)=O)CCOCC3)c2)cc1", "class 1"],
  ["C=CCc1cc(S(=O)(=O)c2ccc(O)c(CC=C)c2)ccc1O", "class 0"],
  ["CCn1nc(C)c2c1C(=O)NCC(c1ccc(O)cc1)=N2", "class 0"]
]}

Next, consider the following molecule.
What was the test verdict on CCCCCCCCCC ?
class 0

---

read-out: Pselectin, SELP (gene 6403); assay: BSK_4H_Pselectin: BioMAP Diversity Plus: 4H Assay for Pselectin Biomarker Activity (AID 2283026); conditions: primary human endothelial cells (HUVEC); actives raise or lower the signal
Active and inactive are the calls of the source. How the source made its calls: active means hit-call score of the fitted dose curve at least 0.9, where 1 is the maximum; inactive means score below 0.9.
Hello, when you answer, please use one of the following outcomes: yes (active), no (inactive)

What was the test verdict on Nc1ccn([C@@H]2O[C@H](CO)[C@@H](O)[C@@H]2O)c(=O)n1 ?
no

What was the test verdict on NC(=O)N1c2ccccc2C=Cc2ccccc21 ?
no

What was the test verdict on O=C(O)c1ccc2c(c1)nc(C(=O)NC1CCN(C3CC3)CC1)n2Cc1cc(-c2ccc(Cl)s2)on1 ?
yes

What was the test verdict on Cc1nc(-c2ccccn2)ncc1C(=O)Nn1cc(C)c2cc(F)ccc21 ?
no

What was the test verdict on NC(=O)NN=Cc1ccc([N+](=O)[O-])o1 ?
no

What was the test verdict on OCCC(F)(F)C(F)(F)C(F)(F)C(F)(F)F ?
no

What was the test verdict on C=CN1CCCC1=O ?
no

What was the test verdict on O=C1CN(N=Cc2ccc([N+](=O)[O-])o2)C(=O)N1 ?
no

What was the test verdict on OC(O)(C(F)C(O)(O)C(F)(F)F)C(F)(F)F ?
no

What was the test verdict on CNC(C)=O ?
no

What was the test verdict on CCCCCCCC1CCC(=O)O1 (stereo not drawn) ?
no

What was the test verdict on COS(C)(=O)=O ?
no

What was the test verdict on C[Si](C)(C)C(F)(F)C(F)(F)C(F)(F)F ?
no

---

Read-out: Alpha-fetoprotein (AFP) gene, AFP (gene 174)
Experiment: LTEA_HepaRG_AFP: Life Technologies and Expression Analysis (LTEA) Assay for Alpha-fetoprotein (AFP) gene using HepaRG (AID 2283472)
Conditions: mRNA level, 48 h; actives raise or lower the signal
Procedure: It is a marker of Undifferentiated hepatocyte.Data from the assay component LTEA_HepaRG_AFP was analyzed into 1 endpoint. This assay endpoint, LTEA_HepaRG_AFP, was analyzed with bidirectional fitting relative to DMSO as the negative control and baseline of activity. Using a type of inducible reporter, measures of mRNA induction for gain or loss-of-signal activity can be used to understand regulation of transcription factor activity. […]
Active and inactive are the calls of the source. The calls were made as follows: active = hit-call score of the fitted dose curve at least 0.9, where 1 is the maximum; inactive = score below 0.9.
Hello, when you answer, please use one of the following outcomes: active, inactive

Consider the worked cases shown below.
{"columns": ["Compound", "Class"],
 "data": [
  ["OC(CCl)CCl", "inactive"],
  ["CCCCCCCCCCCCCCCCOS(=O)(=O)O", "active"],
  ["NC(=O)N(O)[C@@H]1COc2cc(OCc3ccccc3)ccc21", "inactive"],
  ["CNC(C)=O", "inactive"]
]}

What was the test verdict on Cc1ncc([C@@H](CCCCCCc2ccc3c(n2)NCCC3)CC(=O)O)cn1 ?
inactive

What was the test verdict on CCCCC(CC)C(=O)OCCOCCOCCOC(=O)C(CC)CCCC (configuration not stated) ?
inactive

What was the test verdict on OC[C@H]1O[C@@](CO)(O[C@H]2O[C@H](CO)[C@@H](O)[C@H](O)[C@H]2O)[C@@H](O)[C@@H]1O ?
inactive

What was the test verdict on CCc1cccc(CC)c1N ?
inactive

What was the test verdict on C[C@]12C=CC(=O)C=C1CC[C@H]1[C@@H]3C[C@@H](O)[C@](O)(C(=O)CO)[C@@]3(C)C[C@H](O)[C@@]12F ?
inactive

What was the test verdict on CCCCCCCCN(C)C ?
inactive

What was the test verdict on COCc1nnc(-c2ccc[n+]([O-])c2)n1-c1c(Cl)c(Cl)cc2[nH]c(=O)c(=O)[nH]c12 ?
inactive

What was the test verdict on O=c1[nH]cnc2c1ncn2[C@H]1CC[C@@H](CO)O1 ?
inactive

What was the test verdict on CCCCN1C(=O)[C@@H]([C@H](O)C2CCCCC2)NC(=O)C12CCN(Cc1ccc(Oc3ccc(C(=O)O)cc3)cc1)CC2 ?
active

What was the test verdict on O=C(O)c1cccc(C[C@@H]2COc3ccc(OCc4nc5cc(F)ccc5s4)cc3[C@@H]2O)c1 ?
active

What was the test verdict on CCCOc1ccc(S(=O)(=O)N2CCN(CC)CC2)cc1-c1nc2c(CC)n(Cc3ccccn3)nc2c(=O)[nH]1 ?
active

What was the test verdict on Nc1ccn([C@@H]2O[C@H](CO)[C@@H](O)[C@@H]2O)c(=O)n1 ?
inactive

What was the test verdict on CCCCCCCC/C=C\CCCCCCCC(=O)OC[C@@H](O)[C@H]1OC[C@H](O)[C@H]1O ?
inactive
